measured-target: KCNQ2/3 channels (Homo sapiens, UniProt O43525+O43526)
Construct: expressed in transfected cells; host or cells: CHO-K1 cells kept under selection antibiotics
experimental-protocol: Fluorescence assay using a voltage sensitive dye (fluorimetry)
Type: cell-based
stated-conditions: CHO-K1 cells expressing KCNQ2/3 channels; relative to retigabine (RTG) = 100%; read-out: Fluorimetry % efficacy (RTG = 100%)
compounds and their reported Emax
State just the number; it will be interpreted in %.

compound	Emax (%)
Cc1c(C(=O)NCc2cccc(F)c2)c(=O)n(C)c2cc(Cl)ccc12 [Example 37]	139
COCCn1c(=O)c(C(=O)NCc2ccc(F)cc2)c(C)c2ccc(C#N)cc21 [Example 23]	105
CCCCn1c(=O)c(C(=O)NCc2cccc(F)c2)c(C)c2ccc(C(F)(F)F)cc21 [Example 2]	90
Cc1c(C(=O)N(C)c2cccc(F)c2)c(=O)n(CC(=O)O)c2cc(C(F)(F)F)ccc12 [Example 28]	16
COc1c(C(=O)NCc2cccc(F)c2)c(=O)n(C)c2cc(C(F)(F)F)ccc12 [Example 45]	190

Measured Emax (KCNQ2/3 channels (Homo sapiens, UniProt O43525+O43526)), entry CCCn1c(=O)c(C(=O)NCc2cccc(F)c2)c(C)c2ccc(C(F)(F)F)cc21 [Example 11] : 167

Measured Emax (KCNQ2/3 channels (Homo sapiens, UniProt O43525+O43526)), entry Cc1c(C(=O)NCc2cccc(F)c2)c(=O)n(C)c2cc(OC(F)(F)F)ccc12 [Example 33] : 138

Measured Emax (KCNQ2/3 channels (Homo sapiens, UniProt O43525+O43526)), entry Cc1c(C(=O)NCc2cccc(F)c2)c(=O)n(C(C)C)c2cc(C(F)(F)F)ccc12 [Example 40] : 145
